Target: recombinant α4β3δ GABAA receptors (Homo sapiens, UniProt P28472+P48169)
Construct: expressed in transfected cells; host or cells: CHO cells (transient transfection, Lipofectamine)
Sequence (P48169 36-554): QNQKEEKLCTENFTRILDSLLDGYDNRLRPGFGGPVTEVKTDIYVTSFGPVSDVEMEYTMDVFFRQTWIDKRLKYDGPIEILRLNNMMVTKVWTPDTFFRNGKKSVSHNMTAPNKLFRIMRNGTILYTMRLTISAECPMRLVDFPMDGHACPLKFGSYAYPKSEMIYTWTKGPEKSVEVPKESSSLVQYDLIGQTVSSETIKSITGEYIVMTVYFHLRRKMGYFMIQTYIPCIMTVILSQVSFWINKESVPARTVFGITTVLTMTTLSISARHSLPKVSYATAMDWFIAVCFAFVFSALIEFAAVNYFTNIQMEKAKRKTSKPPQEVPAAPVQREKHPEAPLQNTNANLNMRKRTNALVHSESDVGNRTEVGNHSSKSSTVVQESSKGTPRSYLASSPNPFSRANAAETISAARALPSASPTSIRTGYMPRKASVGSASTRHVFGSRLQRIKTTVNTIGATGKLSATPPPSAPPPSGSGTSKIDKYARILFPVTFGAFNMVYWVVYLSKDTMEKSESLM
Sequence (P28472 26-473): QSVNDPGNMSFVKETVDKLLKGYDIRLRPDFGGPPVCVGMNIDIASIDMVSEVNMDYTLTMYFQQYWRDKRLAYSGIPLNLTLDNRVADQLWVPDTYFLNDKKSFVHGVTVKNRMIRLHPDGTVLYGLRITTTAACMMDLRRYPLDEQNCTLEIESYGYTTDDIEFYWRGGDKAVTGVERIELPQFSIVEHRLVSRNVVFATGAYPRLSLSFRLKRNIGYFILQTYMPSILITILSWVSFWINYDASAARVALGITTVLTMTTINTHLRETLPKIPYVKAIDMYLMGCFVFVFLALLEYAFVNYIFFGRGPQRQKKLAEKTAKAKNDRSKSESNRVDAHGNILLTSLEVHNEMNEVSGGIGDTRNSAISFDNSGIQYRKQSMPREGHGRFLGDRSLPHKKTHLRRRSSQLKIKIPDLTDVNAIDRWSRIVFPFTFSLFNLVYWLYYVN
Sequence (O14764 17-452 partner limits assumed): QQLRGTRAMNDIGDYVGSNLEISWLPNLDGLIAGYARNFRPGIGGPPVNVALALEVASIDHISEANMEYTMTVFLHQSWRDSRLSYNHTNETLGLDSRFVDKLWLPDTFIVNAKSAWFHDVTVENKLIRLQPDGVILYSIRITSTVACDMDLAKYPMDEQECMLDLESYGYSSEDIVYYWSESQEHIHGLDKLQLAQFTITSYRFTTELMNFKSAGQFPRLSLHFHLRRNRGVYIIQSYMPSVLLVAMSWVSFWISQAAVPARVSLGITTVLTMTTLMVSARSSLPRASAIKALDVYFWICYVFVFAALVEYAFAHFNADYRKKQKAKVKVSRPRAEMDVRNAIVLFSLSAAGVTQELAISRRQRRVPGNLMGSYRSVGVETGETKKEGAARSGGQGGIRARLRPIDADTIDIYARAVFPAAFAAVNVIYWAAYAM
Assay: Patch clamp electrophysiology, manual patch, CHO cells
Assay type: cell-based
Conditions: 10 μM test article, GABA EC20 = 2 μM, read-out: GABA (α4β3δ) Manual patch in CHO, % efficacy at 10 μM
Assay Metric: Emax at 10 µM

Completed entries (count: 2):
{"columns": ["Smiles Str", "Emax at 10 µM"],
 "data": [
  ["C[C@@]1(O)CC[C@H]2[C@@H](CC[C@@H]3[C@@H]2CC[C@]2(C)[C@@H](C(=O)Cn4cncn4)CC[C@@H]32)C1", "> 500%"],
  ["Cc1cnnn1CC(=O)[C@H]1CC[C@H]2[C@@H]3CC[C@@H]4C[C@](C)(O)CC[C@@H]4[C@H]3CC[C@]12C", "> 500%"]
]}

// below: Emax at 10 µM requested for another molecule
If you can, please state the reported Emax at 10 µM value of Cc1nnn(CC(=O)[C@H]2CC[C@H]3[C@@H]4CC[C@@H]5C[C@](C)(O)CC[C@@H]5[C@H]4CC[C@]23C)n1 . > 500%

----------
Target: recombinant α1β2γ2 GABAA receptors (Homo sapiens, UniProt P14867+P47870)
Construct: expressed in transfected cells
Sequence (P14867 28-456): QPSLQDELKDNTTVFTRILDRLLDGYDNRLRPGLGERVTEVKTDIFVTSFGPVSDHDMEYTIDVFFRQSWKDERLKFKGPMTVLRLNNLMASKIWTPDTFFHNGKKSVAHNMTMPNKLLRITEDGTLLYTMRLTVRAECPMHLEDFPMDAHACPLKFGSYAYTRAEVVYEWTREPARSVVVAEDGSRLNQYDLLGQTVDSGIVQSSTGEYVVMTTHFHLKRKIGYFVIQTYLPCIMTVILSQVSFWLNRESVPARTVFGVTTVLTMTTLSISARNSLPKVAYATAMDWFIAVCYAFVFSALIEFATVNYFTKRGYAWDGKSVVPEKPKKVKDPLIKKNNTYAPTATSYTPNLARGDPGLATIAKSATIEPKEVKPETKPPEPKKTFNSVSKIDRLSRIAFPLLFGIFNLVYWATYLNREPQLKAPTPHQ
Sequence (P47870 25-512 limits assumed): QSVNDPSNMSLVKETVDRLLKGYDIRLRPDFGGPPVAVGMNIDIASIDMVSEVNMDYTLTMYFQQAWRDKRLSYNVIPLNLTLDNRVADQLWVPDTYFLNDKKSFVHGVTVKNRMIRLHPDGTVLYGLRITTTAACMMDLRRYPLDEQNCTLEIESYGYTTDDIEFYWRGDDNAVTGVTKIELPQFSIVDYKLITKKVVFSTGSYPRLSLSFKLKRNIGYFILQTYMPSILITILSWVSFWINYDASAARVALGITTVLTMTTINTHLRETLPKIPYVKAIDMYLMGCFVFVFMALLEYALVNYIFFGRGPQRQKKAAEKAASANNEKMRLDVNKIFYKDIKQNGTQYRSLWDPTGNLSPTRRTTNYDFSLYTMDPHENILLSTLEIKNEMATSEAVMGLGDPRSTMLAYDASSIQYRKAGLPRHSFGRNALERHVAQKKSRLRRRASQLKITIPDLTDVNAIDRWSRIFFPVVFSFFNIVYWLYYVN
Sequence (P18507 40-475 partner): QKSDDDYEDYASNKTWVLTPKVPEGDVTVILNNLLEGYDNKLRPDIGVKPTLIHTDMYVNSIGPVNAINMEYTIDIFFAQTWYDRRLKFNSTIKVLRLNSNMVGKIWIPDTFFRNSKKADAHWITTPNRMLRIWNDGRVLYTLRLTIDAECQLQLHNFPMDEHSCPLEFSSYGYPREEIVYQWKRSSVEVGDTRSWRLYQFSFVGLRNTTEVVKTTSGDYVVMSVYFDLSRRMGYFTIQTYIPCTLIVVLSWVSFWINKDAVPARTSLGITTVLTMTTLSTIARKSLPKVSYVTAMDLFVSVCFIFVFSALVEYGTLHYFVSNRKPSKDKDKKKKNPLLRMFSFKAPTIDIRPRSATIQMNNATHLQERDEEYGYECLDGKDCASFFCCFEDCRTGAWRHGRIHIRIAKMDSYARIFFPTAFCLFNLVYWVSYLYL
Experiment: Patch clamp electrophysiology, QPatch, LTK cells
Format: cell-based
Settings: 10 μM test article, GABA EC20 = 2 μM, read-out: GABA (α1β2γ2) Qpatch in Ltk, % efficacy at 10 μM
Each entry below lists one item and its recorded Emax at 10 µM value.

Completed entries (count: 8):
{"columns": ["Smiles Str", "Target Entity", "Emax at 10 µM"],
 "data": [
  ["Cc1nnn(CC(=O)[C@H]2CC[C@H]3[C@@H]4CC[C@@H]5C[C@](C)(O)CC[C@@H]5[C@H]4CC[C@]23C)n1", "recombinant α1β2γ2 GABAA receptors (Homo sapiens, UniProt P14867+P47870)", "> 500%"],
  ["C[C@]12CC[C@H]3[C@@H](CC[C@@H]4C[C@@](O)(CF)CC[C@@H]43)[C@@H]1CC[C@@H]2C(=O)Cn1cnnn1", "recombinant α1β2γ2 GABAA receptors (Homo sapiens, UniProt P14867+P47870)", "100 to 500%"],
  ["CCOC[C@@]1(O)CC[C@H]2[C@H](CC[C@@H]3[C@@H]2CC[C@]2(C)[C@@H](C(=O)Cn4nnnc4C)CC[C@@H]32)C1", "recombinant α1β2γ2 GABAA receptors (Homo sapiens, UniProt P14867+P47870)", "100 to 500%"],
  ["CO[C@H]1C[C@H]2[C@@H](CC[C@@H]3[C@@H]2CC[C@]2(C)[C@@H](C(=O)Cn4nccn4)CC[C@@H]32)C[C@]1(C)O", "recombinant α1β2γ2 GABAA receptors (Homo sapiens, UniProt P14867+P47870)", "100 to 500%"],
  ["CC[C@@]1(O)CC[C@H]2[C@@H](CC[C@@H]3[C@@H]2CC[C@]2(C)[C@@H](C(=O)Cn4nccn4)CC[C@@H]32)C1", "recombinant α1β2γ2 GABAA receptors (Homo sapiens, UniProt P14867+P47870)", "100 to 500%"],
  ["Cc1cn(CC(=O)[C@H]2CC[C@H]3[C@@H]4CC[C@@H]5C[C@](C)(O)CC[C@@H]5[C@H]4CC[C@]23C)nn1", "recombinant α1β2γ2 GABAA receptors (Homo sapiens, UniProt P14867+P47870)", "> 500%"],
  ["CC[C@@]1(O)CC[C@H]2[C@H](CC[C@@H]3[C@@H]2CC[C@]2(C)[C@@H](C(=O)Cn4nccn4)CC[C@@H]32)C1", "recombinant α1β2γ2 GABAA receptors (Homo sapiens, UniProt P14867+P47870)", "100 to 500%"],
  ["C[C@@]1(O)CC[C@H]2[C@H](CC[C@@H]3[C@@H]2CC[C@]2(C)[C@@H](C(=O)Cn4ccnn4)CC[C@@H]32)C1", "recombinant α1β2γ2 GABAA receptors (Homo sapiens, UniProt P14867+P47870)", "100 to 500%"]
]}

// below: Emax at 10 µM requested for another compound
If you can, please state the reported Emax at 10 µM value of C[C@]12CC[C@H]3[C@@H](CC[C@@H]4C[C@@](O)(C(F)F)CC[C@@H]43)[C@@H]1CC[C@@H]2C(=O)Cn1cnnn1 . 100 to 500%

----------
Biological target: recombinant α1β2γ2 GABAA receptors (Homo sapiens, UniProt P14867+P47870)
Construct: expressed in transfected cells
Assay: Patch clamp electrophysiology, QPatch, LTK cells
Assay type: cell-based
Conditions: 10 μM test article, GABA EC20 = 2 μM, read-out: GABA (α1β2γ2) Qpatch in Ltk, % efficacy at 10 μM
Assay Metric: Emax at 10 µM

Completed entries (count: 4):
{"columns": ["Smiles Str", "Target Entity", "Emax at 10 µM"],
 "data": [
  ["COC[C@@]1(O)CC[C@H]2[C@@H](CC[C@@H]3[C@@H]2CC[C@]2(C)[C@@H](C(=O)Cn4nnc(C)n4)CC[C@@H]32)C1", "recombinant α1β2γ2 GABAA receptors (Homo sapiens, UniProt P14867+P47870)", "100 to 500%"],
  ["C[C@@H]1C[C@H]2[C@@H](CC[C@@H]3[C@@H]2CC[C@]2(C)[C@@H](C(=O)Cn4nccn4)CC[C@@H]32)C[C@]1(C)O", "recombinant α1β2γ2 GABAA receptors (Homo sapiens, UniProt P14867+P47870)", "100 to 500%"],
  ["Cc1cnn(CC(=O)[C@H]2CC[C@H]3[C@@H]4CC[C@@H]5C[C@](C)(O)CC[C@@H]5[C@H]4CC[C@]23C)n1", "recombinant α1β2γ2 GABAA receptors (Homo sapiens, UniProt P14867+P47870)", "100 to 500%"],
  ["CCO[C@H]1C[C@H]2[C@@H](CC[C@@H]3[C@@H]2CC[C@]2(C)[C@@H](C(=O)Cn4nccn4)CC[C@@H]32)C[C@]1(C)O", "recombinant α1β2γ2 GABAA receptors (Homo sapiens, UniProt P14867+P47870)", "100 to 500%"]
]}

If you can, please state the reported Emax at 10 µM value of CO[C@@H]1C[C@@H]2[C@H](CC[C@]3(C)[C@@H](C(=O)Cn4nccn4)CC[C@@H]23)[C@H]2CC[C@@](C)(O)C[C@H]21 . 10 to 100%

If you can, please state the reported Emax at 10 µM value of COC[C@@]1(O)CC[C@H]2[C@@H](CC[C@@H]3[C@@H]2CC[C@]2(C)[C@@H](C(=O)Cn4ccnn4)CC[C@@H]32)C1 . 100 to 500%

If you can, please state the reported Emax at 10 µM value of CO[C@@H]1C[C@@H]2[C@H](CC[C@]3(C)[C@@H](C(=O)Cn4ccnn4)CC[C@@H]23)[C@H]2CC[C@@](C)(O)C[C@@H]21 . 100 to 500%

If you can, please state the reported Emax at 10 µM value of Cc1cnnn1CC(=O)[C@H]1CC[C@H]2[C@@H]3CC[C@@H]4C[C@](C)(O)CC[C@@H]4[C@H]3CC[C@]12C . > 500%

If you can, please state the reported Emax at 10 µM value of Cc1cnnn1CC(=O)[C@H]1CC[C@H]2[C@@H]3C[C@@H](F)[C@H]4C[C@](C)(O)CC[C@@H]4[C@H]3CC[C@]12C . 100 to 500%

If you can, please state the reported Emax at 10 µM value of C[C@@]1(O)CC[C@@H]2[C@H]3CC[C@]4(C)[C@@H](C(=O)Cn5ncnn5)CC[C@H]4[C@@H]3C[C@@H](F)[C@H]2C1 . 100 to 500%

----------
Target: recombinant α4β3δ GABAA receptors (Homo sapiens, UniProt P28472+P48169)
Construct: expressed in transfected cells; host or cells: CHO cells (transient transfection, Lipofectamine)
Test: Patch clamp electrophysiology, manual patch, CHO cells
Format: cell-based
Conditions: 10 μM test article, GABA EC20 = 2 μM, read-out: GABA (α4β3δ) Manual patch in CHO, % efficacy at 10 μM
Assay Metric: Emax at 10 µM

Completed entries (count: 6):
{"columns": ["Smiles Str", "Observed Measurement"],
 "data": [
  ["CC[C@@]1(O)CC[C@H]2[C@H](CC[C@@H]3[C@@H]2CC[C@]2(C)[C@@H](C(=O)Cn4nccn4)CC[C@@H]32)C1", "> 500%"],
  ["C[C@H]1C[C@H]2[C@@H](CC[C@@H]3[C@@H]2CC[C@]2(C)[C@@H](C(=O)Cn4nccn4)CC[C@@H]32)C[C@]1(C)O", "100 to 500%"],
  ["CCO[C@H]1C[C@H]2[C@@H](CC[C@@H]3[C@@H]2CC[C@]2(C)[C@@H](C(=O)Cn4nccn4)CC[C@@H]32)C[C@]1(C)O", "> 500%"],
  ["Cc1nnnn1CC(=O)[C@H]1CC[C@H]2[C@@H]3C[C@@H](F)[C@H]4C[C@](C)(O)CC[C@@H]4[C@H]3CC[C@]12C", "100 to 500%"],
  ["C[C@@H]1C[C@H]2[C@@H](CC[C@@H]3[C@@H]2CC[C@]2(C)[C@@H](C(=O)Cn4nccn4)CC[C@@H]32)C[C@]1(C)O", "100 to 500%"],
  ["C[C@@]1(O)CC[C@H]2[C@H](CC[C@@H]3[C@@H]2CC[C@]2(C)[C@@H](C(=O)Cn4cnnn4)CC[C@@H]32)C1", "100 to 500%"]
]}

If you can, please state the reported Emax at 10 µM value of C[C@@]1(O)CC[C@@H]2[C@H]3CC[C@]4(C)[C@@H](C(=O)Cn5ncnn5)CC[C@H]4[C@@H]3C[C@@H](F)[C@H]2C1 . > 500%

If you can, please state the reported Emax at 10 µM value of C[C@@]1(O)CC[C@@H]2[C@H]3CC[C@]4(C)[C@@H](C(=O)Cn5ccnn5)CC[C@H]4[C@@H]3C[C@@H](F)[C@H]2C1 . 100 to 500%

If you can, please state the reported Emax at 10 µM value of COC[C@@]1(O)CC[C@H]2[C@@H](CC[C@@H]3[C@@H]2CC[C@]2(C)[C@@H](C(=O)Cn4nnc(C)n4)CC[C@@H]32)C1 . 100 to 500%

If you can, please state the reported Emax at 10 µM value of Cc1nnn(CC(=O)[C@H]2CC[C@H]3[C@@H]4CC[C@@H]5C[C@@](O)(CF)CC[C@@H]5[C@H]4CC[C@]23C)n1 . 100 to 500%

If you can, please state the reported Emax at 10 µM value of Cc1nnn(CC(=O)[C@H]2CC[C@H]3[C@@H]4C[C@@H](F)[C@H]5C[C@](C)(O)CC[C@@H]5[C@H]4CC[C@]23C)n1 . 100 to 500%

If you can, please state the reported Emax at 10 µM value of C[C@@]1(O)CC[C@H]2[C@H](CC[C@@H]3[C@@H]2CC[C@]2(C)[C@@H](C(=O)Cn4ccnn4)CC[C@@H]32)C1 . > 500%

If you can, please state the reported Emax at 10 µM value of C[C@@]1(O)CC[C@@H]2[C@H]3CC[C@]4(C)[C@@H](C(=O)Cn5nccn5)CC[C@H]4[C@@H]3C[C@@H](F)[C@H]2C1 . 100 to 500%

Data provenance is patent US20200165291A1.
